Reference source for all entries: the supplement of paper PMC13380429

# Test system: Vero E6 infected with SARS-CoV-2
# protocol.summary: inhibition of SARS-CoV-2 cytopathic effect; higher = more antiviral protection, active = above 15
# test.settings: 833.33 nM; 48 h
measured.endpoint: inhibition of SARS-CoV-2 cytopathic effect (%)
Report only the number, with the unit % understood.

Take a look at these entries with their results.
- O=c1cc(-c2cccc3c2Sc2ccccc2S3)oc(N2CCOCC2)c1: 3.55
- C/C1=C/C[C@@H](/C(C)=C/c2csc(C)n2)OC(=O)C[C@H](O)C(C)(C)C(=O)[C@H](C)[C@@H](O)[C@@H](C)CCC1: -0.53
- CC[C@H](/C=C/[C@@H](C)[C@H]1CC[C@H]2[C@@H]3CC=C4C[C@@H](O)CC[C@]4(C)[C@H]3CC[C@]12C)C(C)C [Stigmasterol (Stigmasterin)]: 0.29

Task: Determine its reported inhibition of SARS-CoV-2 cytopathic effect: Cn1c2c(c3ccccc31)CCNCC2
Result: 0.96

Task: For the compound NCCc1cc(O)c(O)cc1O , give its reported inhibition of SARS-CoV-2 cytopathic effect.
Result: -2.87

----------
Quick list: SARS-CoV-2 infection rate per entry.
# Test system: Vero E6 infected with SARS-CoV-2
# protocol.summary: SARS-CoV-2 infection rate relative to infected DMSO; higher = more infection, active = 60 or less
# test.settings: 24 h
Quick note: give the figure in %, leave out the unit.

Solved entries (count: 5):
- C=Cc1cc(O)cc2nc(-c3ccc(O)c(F)c3)oc12 [prinaberel] (10 µM): 96.5
- C[n+]1c2cc(N)ccc2cc2ccc(N)cc21 [acriflavinium] (0.833333 µM): 98.5
- COc1cc(C(=O)NC2CCN(C)CC2)c(F)cc1Nc1ncc2c(n1)N(C1CCCC1)CC(F)(F)C(=O)N2C (0.833333 µM): 100
- Cc1cc(C)c(/C=C2\C(=O)Nc3ccccc32)[nH]1 [semaxanib] (10 µM): 96
- O=C(O)Cc1ccc(OCCNC[C@H](O)c2ccccc2)cc1 (10 µM): 106

Task: Fill in SARS-CoV-2 infection rate for record C[C@@H]1Cc2c([nH]c3ccccc23)[C@@H](c2c(F)cc(/C=C/C(=O)O)cc2F)N1CC(C)(C)F (10 µM)
Result: 105

Task: Return the recorded SARS-CoV-2 infection rate value; entry: O=S(=O)(O)c1ccc(-c2c3nc(c(-c4ccc(S(=O)(=O)O)cc4)c4ccc([nH]4)c(-c4ccc(S(=O)(=O)O)cc4)c4nc(c(-c5ccc(S(=O)(=O)O)cc5)c5ccc2[nH]5)C=C4)C=C3)cc1 (10 µM)
Result: 102

Task: Using known records, supply SARS-CoV-2 infection rate for COC(=O)C1=C(C)NC(C)=C(C(=O)OC/C=C/c2ccccc2)C1c1cccc([N+](=O)[O-])c1 (stereo unspecified) [pranidipine] (10 µM)
Result: 107

----------
# Tested on: Vero E6 infected with SARS-CoV-2
# protocol.summary: inhibition of SARS-CoV-2 cytopathic effect; higher = more antiviral protection, active = above 15
# test.settings: 10000 nM; 48 h
measured.endpoint: inhibition of SARS-CoV-2 cytopathic effect (%)
Note: unit % is implicit; provide only the numeric part.

• COCCCN1CCC(NC(=O)c2cc(Cl)c(N)c3c2OCC3)CC1 [prucalopride] = 1.47
• O=c1[nH]c2ccccc2n1C1CCN(CCOc2ccccc2)CC1 [oxiperomide] = 2.21
• Nc1n[n+]([O-])c2ccccc2[n+]1[O-] = 2.74
• NS(=O)(=O)NCc1csc2ccccc12 = 2.4
• C/C=C(/C)C(=O)O[C@H]1C(C)=C[C@]23C(=O)[C@@H](C=C(CO)[C@@H](O)[C@]12O)[C@H]1[C@@H](C[C@H]3C)C1(C)C [ingenol-mebutate] = -8.66
• NC[C@@H](O)CC(=O)O [aminohydroxybutyric-acid] = -0.71

Task: Provide inhibition of SARS-CoV-2 cytopathic effect value for the following compound: C=CC(=O)Nc1ccc2ncnc(Nc3ccc(OCc4cccc(F)c4)c(Cl)c3)c2c1
Result: -3.89

----------
# Test system: Vero E6 infected with SARS-CoV-2
# protocol.summary: inhibition of SARS-CoV-2 cytopathic effect; higher = more antiviral protection, active = above 15
# test.settings: 1 nM; 48 h
measured.endpoint: inhibition of SARS-CoV-2 cytopathic effect (%)
Field format: number, assumed %, no unit text.

- CCOC(=O)C1=C(N)Oc2ccc(Br)cc2C1C(C#N)C(=O)OCC (stereo not drawn): -0.86
- Cc1ccc(NC(=O)c2ccc(CN3CC[C@H](N(C)C)C3)c(C(F)(F)F)c2)cc1Nc1nccc(-c2cncnc2)n1: 3.35
- COc1cc2c(cc1OC)[C@H](C)NCC2 [Isoquinoline,-6,7-dimethoxy-1-methyl-1,2,3,4-tetrahydro,]: -4.15
- CC(C)(N)C(=O)N[C@H](COCc1ccccc1)C(=O)N1CCC2(CC1)CN(S(C)(=O)=O)c1ccccc12: 1.85
- Nc1n[n+]([O-])c2ccccc2[n+]1[O-]: -0.88

Task: Please report inhibition of SARS-CoV-2 cytopathic effect with Vero E6 infected with SARS-CoV-2 for item CCOC(=O)c1ccc(NC2CCCCC2)c(N)c1 .
Result: 0.05

Task: Please report the measured inhibition of SARS-CoV-2 cytopathic effect for Cc1cc2c(F)c(Oc3ncnn4cc(OC[C@@H](C)OC(=O)[C@H](C)N)c(C)c34)ccc2[nH]1 [brivanib-alaninate] tested on Vero E6 infected with SARS-CoV-2.
Result: -0.11

Task: Please report inhibition of SARS-CoV-2 cytopathic effect with Vero E6 infected with SARS-CoV-2 for item Cc1cc2sc(NC(=O)Cc3ccccc3)nc2cc1Cl .
Result: 2.05

----------
inhibition of SARS-CoV-2 cytopathic effect by entry:
# Tested on: Vero E6 infected with SARS-CoV-2
# protocol.summary: inhibition of SARS-CoV-2 cytopathic effect; higher = more antiviral protection, active = above 15
# test.settings: 833.33 nM; 48 h
State just the number; it will be interpreted in %.

Solved cases (2 shown):
* Cc1cnc(-c2cnc(NCCNc3ccc(C#N)cn3)nc2-c2ccc(Cl)cc2Cl)[nH]1 | 3.98
* Fc1ccc(-c2cncc(CN3CCN(c4cccc5c4OCCO5)CC3)c2)cc1 | 1.56

Task: Quickly give me recorded inhibition of SARS-CoV-2 cytopathic effect for CC(Cc1ccccc1)(NC(=O)CN)c1ccccc1 (centres undefined) [remacemide]
Result: 0.88

Task: Using the record for CC(=O)c1cnc2ccc(-c3cc(Cl)c(O)c(Cl)c3)nc2c1N[C@H]1CC[C@H](CN(C)C)CC1 , state its measured inhibition of SARS-CoV-2 cytopathic effect.
Result: 0.11

Task: State its inhibition of SARS-CoV-2 cytopathic effect: C[C@@H](O[C@H]1OCCN(Cc2nn(P(=O)(O)O)c(=O)[nH]2)[C@H]1c1ccc(F)cc1)c1cc(C(F)(F)F)cc(C(F)(F)F)c1 [fosaprepitant-dimeglumine]
Result: -0.01

Task: Could you please provide reported inhibition of SARS-CoV-2 cytopathic effect for CC(C)(C)N1CCC(c2ccccc2)(c2ccccc2)CC1 ? Thanks!
Result: -0.28

Task: State, in one line, measured inhibition of SARS-CoV-2 cytopathic effect of O=C1[C@H]2CCCC[C@H]2C(=O)N1CCCCN1CCN(c2nsc3ccccc23)CC1
Result: 3.58

Task: Supply reported inhibition of SARS-CoV-2 cytopathic effect belonging to this molecule: CC1(C)OC2(C)C(O)CC1CC2O (centres undefined)
Result: 1.92

Task: Give the value of inhibition of SARS-CoV-2 cytopathic effect reported for the following: CCCCc1nc2cc(/C=C/C(=O)NO)ccc2n1CCN(CC)CC
Result: -20.5

----------
# Test system: Vero E6 infected with SARS-CoV-2
# protocol.summary: morphology score (similarity to uninfected cells); higher = more like uninfected cells
# test.settings: 24 h
Label f if morphology score falls below 0.02; label t in every other case.

• COC[C@H](NC(=O)c1cnc(C)s1)C(=O)N[C@@H](COC)C(=O)N[C@@H](Cc1ccccc1)C(=O)[C@@]1(C)CO1 [oprozomib] (0.833333 µM) = f

Task: State whether the measured morphology score reaches 0.02, counting equality as reaching it, for CCC[C@@H]1CC2=CC(=O)CC[C@]2(C)[C@H]2CC[C@@]3(C)[C@@H](CC[C@@]3(O)CCC(=O)O)[C@H]12 (10 µM)
Result: t

Task: Decide: morphology score of CC(C)[C@H]1c2ccc(F)cc2CC[C@@]1(CCN(C)CCCc1nc2ccccc2[nH]1)OC(=O)C1CC1 (0.833333 µM) >= 0.02?
Result: t

Task: Decide: is the reported value of morphology score for COc1cc(C(=O)NCc2ccc(OCCN(C)C)cc2)cc(OC)c1OC [trimethobenzamide] (10 µM) equal to or greater than 0.02?
Result: f

Task: Decide: is the reported value of morphology score for CC[N+](CC)(CC)CCC(O)(c1ccccc1)C1CCCCC1 (configuration not stated) [tridihexethyl] (10 µM) equal to or greater than 0.02?
Result: f

Task: Is morphology score for CCC(NC(C)C)C(O)c1ccc(O)c2[nH]c(=O)ccc12 (configuration not stated) [procaterol] (10 µM) at or above 0.02?
Result: t

Task: Check the entry CCO[C@@H]1OC(=O)C[C@@H]1NC(=O)[C@@H]1CCCN1C(=O)[C@@H](NC(=O)c1ccc(N)c(Cl)c1)C(C)(C)C (10 µM) : does morphology score equal or exceed 0.02?
Result: t

Task: Say whether CNCC(O)c1ccc(O)c(O)c1 (racemic) [DL-Adrenaline] (10 µM) shows morphology score of 0.02 or more.
Result: t

Task: Evaluate CC(C)NCCCn1c(Sc2cc3c(cc2I)OCO3)nc2c(N)ncnc21 (0.833333 µM) : morphology score at minimum 0.02?
Result: t

Task: # bool: morphology score of CN1C[C@H](CNC(=O)OCc2ccccc2)C[C@@H]2c3cccc4c3c(cn4C)C[C@H]21 [metergoline] (10 µM) >= 0.02
Result: t
